# composite z-score per entry
- test_summary: small-molecule binders of probe aInhba, primary screen, biochemical, small-molecule microarray, 635/667 nm fluorescence (AID 1148);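 further: score merges 667nm spot fluorescence with signal-to-noise for antibody binding to printed compounds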
- protocol_conditions: higher = more signal
recorded_metric: composite z-score

compound: CC(C)c1ccc(NN2C(C(O)C(C)C)C=CC3C(=O)N(c4ccccc4)C(=O)C32)cc1 (centres undefined)
endpoint_result: 0.722

compound: CC(C)C[C@@H]1NC(=O)[C@@H]2C[C@H](C(=O)NCCCC[N+](C)(C)C)[C@H](c3ccc(O)cc3)N2C1=O
endpoint_result: 0.0669

compound: COC(=O)Cn1c(C(=O)N(C)C)cc2c1C[C@H]1CN(C(=O)c3ccccc3)[C@@](Cc3ccc(OC)cc3)(C(=O)OC)[C@@H]21
endpoint_result: 0.438

compound: COc1cc2c(cc1O)C(C1CC1)N(Cc1ccc([N+](=O)[O-])o1)CC2 (centres undefined)
endpoint_result: 0.161

compound: N#Cc1ccc(C(O)C2C=CC3C(=O)NC(=O)C3N2Nc2ccccn2)cc1 (centres undefined)
endpoint_result: -0.0427

compound: COCCOC(=O)N1C(=O)[C@@]2(c3ccccc31)[C@H](C(=O)N1CCCCCCC1)[C@H]1C(=O)O[C@H](c3ccccc3)[C@H](c3ccccc3)N1[C@@H]2c1ccc(O)cc1
endpoint_result: 2.13

compound: CC(C)CNC(=O)[C@@H]1c2ccccc2C(=O)N(Cc2ccccc2Cl)[C@H]1c1ccc(CO)cc1
endpoint_result: -0.204

compound: COC(=O)[C@@]1(CCS(=O)(=O)c2ccccc2)N=C(c2ccc(OCCCO)cc2)O[C@H]1c1ccccc1N=[N+]=[N-]
endpoint_result: 0.0519

compound: COCCOC(=O)N1C(=O)[C@@]2(c3cc(C#CCCO)ccc31)[C@H](c1ccccc1OCCO)N1[C@H](c3ccccc3)[C@H](c3ccccc3)OC(=O)[C@H]1[C@@H]2C(=O)N1CCc2cc(OC)c(OC)cc2C1
endpoint_result: -0.0448

compound: CCCCCCCCCCC(O)C1C=CC2C(=O)N(C)C(=O)C2N1N1CCCCC1 (centres undefined)
endpoint_result: -0.0762

compound: CCOC(=O)C[C@H]1[C@H](OC(=O)c2ccc(-c3ccccc3)cc2)[C@@H](NC(=O)CC(C)C)c2cc(OCCCO)ccc2N1C(=O)Cc1ccc(OC)cc1
endpoint_result: -0.0223

compound: C=CCNC(=O)[C@H]1[C@@H]2C(=O)O[C@@H](c3ccccc3)[C@@H](c3ccccc3)N2[C@@H](c2ccc(O)cc2)[C@]12C(=O)Nc1ccc(C#CC3=CCCCC3)cc12
endpoint_result: 0.616

compound: C=C(COC)C(=O)CC[C@@H](OC(C)=O)c1ccc(OCCO)cc1
endpoint_result: -0.0523

compound: C=CC[C@@]1(C(=O)O)N=C(c2ccc(OCCCO)cc2)O[C@@H]1c1ccccc1CN=[N+]=[N-]
endpoint_result: -0.0736

compound: C=CCNC(=O)[C@H]1[C@@H]2C(=O)O[C@@H](c3ccccc3)[C@@H](c3ccccc3)N2[C@@H](c2ccccc2OCCO)[C@]12C(=O)N(C(=O)OCCOC)c1ccccc12
endpoint_result: -0.358

compound: O=C1O[C@H](c2ccccc2)[C@H](c2ccccc2)N2[C@H]1[C@@H](C(=O)N1CCN(c3ncccn3)CC1)[C@]1(C(=O)Nc3ccccc31)[C@H]2c1ccc(O)cc1
endpoint_result: 0.0018

compound: C=CCC(OC(C)=O)[C@@H]1[C@@H](N(Cc2ccc(-c3ccccc3)cc2)C(=O)c2cccc3ccccc23)c2cc(OCCCO)ccc2N1C(=O)c1ccc2ccccc2c1 (some centres undefined)
endpoint_result: 0.0219

compound: CCCC[C@@H](O)C1=C(COC)Cn2c(=O)n(-c3ccccc3)c(=O)n2[C@H]1CO
endpoint_result: -0.128

compound: CC(=O)n1cc(C(O)C2C=CC3C(=O)N(c4ccccc4)C(=O)C3N2Nc2ccccc2F)c2ccccc21 (centres undefined)
endpoint_result: -0.157

compound: C=CCC(OC(C)=O)[C@@H]1[C@@H](N(Cc2ccc(-c3cccc(C(F)(F)F)c3)o2)C(=O)Cc2ccc(F)cc2)c2cc(OCCCO)ccc2N1C(=O)c1ccc2ccccc2n1 (some centres undefined)
endpoint_result: -0.176

compound: C=C(C(=O)CC[C@@H](OC(C)=O)c1cccc(OCCO)c1)C(C)C
endpoint_result: 0.0053

compound: COC(=O)[C@]1(CO)N=C(c2ccc(OCCCO)cc2)O[C@@H]1c1ccccc1CN=[N+]=[N-]
endpoint_result: -0.154

compound: [N-]=[N+]=NCc1ccccc1C[C@@]1(C(=O)O)N=C(c2ccc(OCCCO)cc2)O[C@@H]1c1ccccc1CN=[N+]=[N-]
endpoint_result: 0.353

compound: Cc1ccc(S[C@]2(C(=O)NCCCN(C)C)CC(=O)N(Cc3ccccc3Cl)[C@@H]2c2ccc(CO)cc2I)cc1
endpoint_result: -0.157

compound: CCCC[C@H]1OB(O)C[C@H]2C1=C(COC)C[C@H]1C(=O)C=CC(=O)[C@H]12
endpoint_result: -0.0552

compound: COCCOC(=O)N1C(=O)[C@@]2(c3ccccc31)[C@H](C(N)=O)[C@H]1C(=O)O[C@H](c3ccccc3)[C@H](c3ccccc3)N1[C@@H]2c1ccc(OCCO)cc1
endpoint_result: 0.0155

compound: Cc1ccc(S[C@]2(C(=O)NC3CC3)CC(=O)N(Cc3cc(C(F)(F)F)cc(C(F)(F)F)c3)[C@@H]2c2ccc(CO)cc2I)cc1
endpoint_result: 0.532

compound: CCOC(=O)C1=C(C(=O)OCC)N(S(=O)(=O)CC[Si](C)(C)C)[C@H](c2ccccc2)CC1
endpoint_result: 0.131

compound: CC(C)[C@@H](C(=O)O)n1cc(-c2ccccc2)nn1
endpoint_result: 0.019
